Cited source: patent US4387106A

inhibition at 5.2 µg/mL values by entry
Molecular target: fatty acyl CoA:cholesterol acyl transferase (ACAT) (Rattus norvegicus, UniProt O70536)
Construct: The supernatant, containing the microsomal fraction, served as the source of the cholesterol-esterifying enzyme; from tissue; host or cells: rat adrenals, homogenate, 1000 x g supernatant containing the microsomal fraction
Sequence (O70536 1-545): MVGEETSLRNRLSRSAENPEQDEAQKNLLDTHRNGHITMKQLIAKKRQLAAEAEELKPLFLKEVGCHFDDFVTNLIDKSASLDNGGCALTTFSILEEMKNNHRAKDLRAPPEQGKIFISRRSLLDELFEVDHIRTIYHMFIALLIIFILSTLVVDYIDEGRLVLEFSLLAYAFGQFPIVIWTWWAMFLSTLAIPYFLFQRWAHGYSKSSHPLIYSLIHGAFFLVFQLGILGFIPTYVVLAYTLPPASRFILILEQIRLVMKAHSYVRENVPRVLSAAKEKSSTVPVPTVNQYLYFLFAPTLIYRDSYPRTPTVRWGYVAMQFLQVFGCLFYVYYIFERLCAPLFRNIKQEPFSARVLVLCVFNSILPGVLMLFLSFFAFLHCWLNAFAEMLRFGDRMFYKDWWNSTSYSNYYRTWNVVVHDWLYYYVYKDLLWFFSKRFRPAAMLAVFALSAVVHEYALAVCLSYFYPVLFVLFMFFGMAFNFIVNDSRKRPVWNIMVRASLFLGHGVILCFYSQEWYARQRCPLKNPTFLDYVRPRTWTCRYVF
Assay: In vitro inhibition of fatty acyl CoA:cholesterol acyl transferase (ACAT), rat adrenal supernatant
Format: biochemical
Details: final concentration 5.2 μg./ml., pH 7.4, 37° C., oleoyl CoA (14C)
readout_name: inhibition at 5.2 µg/mL (%)

| molecule | readout_name | measure_unit | observed_measurement |
| --- | --- | --- | --- |
| O=C(Nc1ccc(Br)cc1Br)N(Cc1ccccc1)Cc1ccccc1 [1,1-Dibenzyl-3-(2,4-dibromophenyl)urea] | inhibition at 5.2 µg/mL | % | 81.9 |
| O=C(Nc1cc(F)ccc1F)N(Cc1ccccc1)Cc1ccccc1 [1,1-Dibenzyl-3-(2,5-difluorophenyl)urea] | inhibition at 5.2 µg/mL | % | 72 |
| CCc1cccc(C)c1NC(=O)N(Cc1ccccc1)Cc1ccccc1 | inhibition at 5.2 µg/mL | % | 73.6 |
| O=C(Nc1ccc(Cl)c(Cl)c1)N(Cc1ccccc1)Cc1ccccc1 [1,1-Dibenzyl-3-(3,4-dichlorophenyl)urea] | inhibition at 5.2 µg/mL | % | 94.5 |
| COc1cccc(NC(=O)N(Cc2ccccc2)Cc2ccccc2)c1 [1,1-Dibenzyl-3-(3-methoxyphenyl)urea] | inhibition at 5.2 µg/mL | % | 87 |
| O=C(Nc1ccccc1Br)N(Cc1ccccc1)Cc1ccccc1 [1,1-Dibenzyl-3-(2-bromophenyl)urea] | inhibition at 5.2 µg/mL | % | 93.9 |
| CCc1cccc(CC)c1NC(=O)N(Cc1ccccc1)Cc1ccccc1 [1,1-Dibenzyl-3-(2,6-diethylphenyl)urea] | inhibition at 5.2 µg/mL | % | 72 |
| O=C(Nc1cc(Cl)cc(Cl)c1)N(Cc1ccccc1)Cc1ccccc1 [1,1-Dibenzyl-3-(3,5-dichlorophenyl)urea] | inhibition at 5.2 µg/mL | % | 86.1 |

----------
Biological target: fatty acyl CoA:cholesterol acyl transferase (ACAT) (Rattus norvegicus)
Construct: The supernatant, containing the microsomal fraction, served as the source of the cholesterol-esterifying enzyme; from tissue; host or cells: rat adrenals, homogenate, 1000 x g supernatant containing the microsomal fraction
Test: In vitro inhibition of fatty acyl CoA:cholesterol acyl transferase (ACAT), rat adrenal supernatant
Type: biochemical
Settings: final concentration 5.2 μg./ml., pH 7.4, 37° C., oleoyl CoA (14C)
Method: The compounds were tested for their ability to inhibit ACAT according to the following procedure: Rat adrenals were homogenized in 0.2 M monobasic potassium phosphate buffer, pH 7.4, and centrifuged at 1000 times gravity for 15 minutes at 5° C. The supernatant, containing the microsomal fraction, served as the source of the cholesterol-esterifying enzyme, fatty acyl CoA:cholesterol acyl transferase (ACAT). […] The cholesteryl ester fraction was counted in a scintillation counter.

| mol_smiles | measure_unit | inhibition at 5.2 µg/mL |
| --- | --- | --- |
| CCCCc1ccc(NC(=O)N(Cc2ccccc2)Cc2ccccc2)cc1 | % | 91.3 |
| CCOC(=O)c1ccc(NC(=S)N(Cc2ccccc2)Cc2ccccc2)cc1 | % | 76.6 |
| O=C(Nc1ccc(I)cc1)N(Cc1ccccc1)Cc1ccccc1 | % | 85.2 |
| Cc1cc(Cl)ccc1NC(=O)N(Cc1ccccc1)Cc1ccccc1 | % | 62.7 |
| CC(C)c1cccc(C(C)C)c1NC(=O)N(Cc1ccccc1)Cc1ccccc1 | % | 59.1 |
